# protocol.description: Solubility in different solvents (aliquot addition until dissolution)
# Type: physicochemical
# conditions.used: organic solvent or mixture, thermodynamic from solid, Cyclohexane
# Method: Solubility in different solvents: Solubility in different organic solvents was measured using the following protocol. Approximately 25 mg portions of genistein and crystalline genistein sodium dihydrate salt were placed in 48 different vials, separately. 5 volume aliquots of each solvent were added exclusively to a vial. […]
Reported solubility values follow for various molecules

molecule: O=c1c(-c2ccc(O)cc2)coc2cc(O)cc(O)c12
solubility: < 10.7 mg/mL

molecule: O.O.O=c1c(-c2ccc(O)cc2)coc2cc(O)cc(O)c12.[Na] [genistein sodium salt dihydrate]
solubility: < 10.9 mg/mL
